Every entry's value here was drawn from paper PMC6316393.

tested on: HeLa (human cervical carcinoma); experiment: MTT cytotoxicity assay, HeLa; settings: read-out: Cytotoxicity IC50, HeLa; HeLa cell line, MTT assay
Property Name: IC50

[[record]]
molecule = "COC1OC(C2=CC(=O)OC2O)CC=C1CCC=C(C)CCC1=C(C)CCCC1(C)C (centres unmarked) [Compound 9, 24-O-methylmanoalide]"
property_name = "IC50"
endpoint_value = "1.51 µM"

[[record]]
molecule = "COC1OC(C2=CC(=O)OC2O)CC=C1CCC=C(C)CCC1=C(C)CCCC1(C)C (centres unmarked) [Compound 8, 24-O-methylmanoalide]"
property_name = "IC50"
endpoint_value = "8.42 µM"


###

Items are presented alongside their recorded pIC50.
tested on: HuCCA-1 (human chlolangiocarcinoma); assay: MTT cytotoxicity assay, HuCCA-1; conditions: Homo sapiens, HuCC-A1, read-out: Cytotoxicity IC50, HuCCA-1
pIC50: −log10 of the molar value.
Property Name: pIC50

[[record]]
compound = "CC1=C(CC/C(C)=C/CCC2=CC[C@H](C3=CC(=O)O[C@H]3O)O[C@H]2O)C(C)(C)CCC1 [Compound 11, manoalide]"
endpoint_value = 4.07

[[record]]
compound = "CC1=C(CC/C(C)=C/CC/C(C=O)=C\\C[C@@H](O)C2=CC(=O)OC2O)C(C)(C)CCC1 (some centres unmarked) [Compound 14, seco-manoalide]"
endpoint_value = 4.32


###

Tested on: A549 (non-small-cell lung cancer)
Experiment: MTT cytotoxicity assay, A549
Conditions: read-out: Cytotoxicity IC50, A549; A549 cell line, MTT assay
Method: The SI value is the ratio of IC50 of normal cell (MRC-5) and IC50 of cancer cell line. Cytotoxic activity for adhesive cell lines including HepG2, HeLa, HuCCA-1, A549, H69AR, KB, T47D, MDA-MB-231, and MRC-5 cell lines were evaluated with the 3-(4,5-dimethylthiazol-2-yl)-2,5-diphenyltetrazoliumbromide (MTT) assay. […]
pIC50: −log10 of the molar value.
Property Name: pIC50

[[record]]
compound = "COC1OC(C2=CC(=O)OC2O)CC=C1CCC=C(C)CCC1=C(C)CCCC1(C)C (stereo not shown) [Compound 9, 24-O-methylmanoalide]"
property_name = "pIC50"
endpoint_value = 4.92


###

system: HepG2 (hepatocarcinoma); experiment: MTT cytotoxicity assay, HepG2; settings: Homo sapiens, HepG2, read-out: Cytotoxicity IC50, HepG2, HepG2 cell line, MTT assay
Items are presented alongside their recorded IC50.
Property Name: IC50

[[record]]
compound = "CC1=C(CC/C(C)=C/CC/C(=C\\CC2OC(=O)C=C2CO)CO)C(C)(C)CCC1 (stereo not shown) [Compound 12, (6E)-neomanoalide]"
endpoint_value = "> 50 µg/mL"

[[record]]
compound = "COC1OC(=O)C=C1C(O)CC=C(C=O)CCC=C(C)CCC1=C(C)CCCC1(C)C (stereo not shown) [Compound 3, seco-manoalide-25-methyl ether]"
endpoint_value = "27.9 µM"

[[record]]
compound = "CC1=C(CC[C@@](C)(O)[C@@H]2CCC(=O)O2)C(C)(C)CCC1 [Compound 16, cavernosine]"
endpoint_value = "> 50 µg/mL"

[[record]]
compound = "CC1=C(CC/C(C)=C/CC/C(=C/C[C@@H](O)C2=CC(=O)OC2)CO)C(C)(C)CCC1 [Compound 10, luffariolide B]"
endpoint_value = "> 50 µg/mL"

